# assayed.system: Mitogen-activated protein kinase 3 (Homo sapiens)
# Sequence (P27361 whole entry): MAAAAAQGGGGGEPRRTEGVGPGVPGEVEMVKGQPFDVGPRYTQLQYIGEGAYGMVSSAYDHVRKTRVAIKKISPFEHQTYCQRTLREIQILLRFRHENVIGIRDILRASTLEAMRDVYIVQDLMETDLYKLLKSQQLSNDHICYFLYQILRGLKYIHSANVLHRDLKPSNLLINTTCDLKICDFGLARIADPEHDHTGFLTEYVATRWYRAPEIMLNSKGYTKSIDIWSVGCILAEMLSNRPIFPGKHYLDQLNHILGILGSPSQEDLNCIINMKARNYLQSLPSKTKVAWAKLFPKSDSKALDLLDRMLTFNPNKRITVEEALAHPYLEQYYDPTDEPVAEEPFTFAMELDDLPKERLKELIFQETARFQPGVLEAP
# experiment.notes: Inhibition of Erk1 by HTRF assay
pIC50: −log10 of the molar value.
measured.metric: pIC50

[ask] Param readout= pIC50; system= Mitogen-activated protein kinase 3 (Homo sapiens); entry= `Cc1cccc(C)c1-n1c(=O)c2cnc(Nc3ccc(N4CCN(C)CC4)cc3)nc2n2c3ccccc3nc12` ; returns value.
[reply] < 4.00

====

measured.metric: log10(IC50) (log10 of the value in µM)
In plain terms, each number is the log10 of measured IC50 in µM.

[ask] Param readout= log10(IC50); system= Vascular endothelial growth factor receptor 2 (Homo sapiens); entry= `CN1CCN(c2ccc(Nc3ncc4c(=O)n(-c5c(Cl)cccc5Cl)c5nc6ccccc6n5c4n3)cc2)CC1` ; returns value.
[reply] -0.28

[ask] Param readout= log10(IC50); system= Vascular endothelial growth factor receptor 2 (Homo sapiens); entry= `Cc1cccc(C)c1-n1c(=O)c2cnc(Nc3ccc(OCCN4CCN(C)CC4)c(F)c3)nc2n2c3ccccc3nc12` ; returns value.
[reply] 0.87

[ask] Param readout= log10(IC50); system= Vascular endothelial growth factor receptor 2 (Homo sapiens); entry= `COc1cc(Nc2ncc3c(=O)n(-c4c(C)cccc4C)c4nc5ccccc5n4c3n2)ccc1OCCN1CCN(C)CC1` ; returns value.
[reply] 0.74

[ask] Param readout= log10(IC50); system= Vascular endothelial growth factor receptor 2 (Homo sapiens); entry= `Cc1cccc(C)c1-n1c(=O)c2cnc(Nc3ccc(N4CCN(C)CC4)cc3)nc2n2c3ccccc3nc12` ; returns value.
[reply] 0.71

[ask] Param readout= log10(IC50); system= Vascular endothelial growth factor receptor 2 (Homo sapiens); entry= `COc1cc(Nc2ncc3c(=O)n(-c4c(C)cccc4C)c4nc5ccccc5n4c3n2)cc(OC)c1OCCN1CCOCC1` ; returns value.
[reply] 0.23

====

pIC50: −log10 of the molar value.
measured.metric: pIC50

[ask] Param readout= pIC50; system= UniProt:O75582; entry= `Cc1cccc(C)c1-n1c(=O)c2cnc(Nc3ccc(N4CCN(C)CC4)cc3)nc2n2c3ccccc3nc12` ; returns value.
Sequence (O75582 whole entry): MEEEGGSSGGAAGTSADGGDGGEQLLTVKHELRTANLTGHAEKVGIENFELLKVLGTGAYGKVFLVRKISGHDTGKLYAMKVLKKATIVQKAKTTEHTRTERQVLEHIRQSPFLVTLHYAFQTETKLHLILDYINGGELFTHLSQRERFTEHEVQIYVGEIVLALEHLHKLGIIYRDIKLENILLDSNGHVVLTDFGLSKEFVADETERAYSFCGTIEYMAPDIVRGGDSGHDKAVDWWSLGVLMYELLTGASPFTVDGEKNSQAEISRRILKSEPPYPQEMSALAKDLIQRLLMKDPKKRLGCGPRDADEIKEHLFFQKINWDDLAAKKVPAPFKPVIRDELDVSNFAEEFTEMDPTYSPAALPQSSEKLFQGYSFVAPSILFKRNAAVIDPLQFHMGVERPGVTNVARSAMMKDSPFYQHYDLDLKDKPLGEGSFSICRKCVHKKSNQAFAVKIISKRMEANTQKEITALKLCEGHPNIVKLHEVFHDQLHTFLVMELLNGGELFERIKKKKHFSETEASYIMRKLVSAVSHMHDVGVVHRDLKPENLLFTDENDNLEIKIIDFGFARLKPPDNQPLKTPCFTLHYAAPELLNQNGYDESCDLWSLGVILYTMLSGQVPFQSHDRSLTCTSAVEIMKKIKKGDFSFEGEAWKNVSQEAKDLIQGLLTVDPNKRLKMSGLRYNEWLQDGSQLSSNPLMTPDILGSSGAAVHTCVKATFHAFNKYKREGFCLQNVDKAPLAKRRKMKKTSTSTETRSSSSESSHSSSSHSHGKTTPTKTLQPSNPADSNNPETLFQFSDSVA
[reply] < 4.00

====

# assayed.system: Mitogen-activated protein kinase 10 (Homo sapiens)
# Sequence (P53779 whole entry): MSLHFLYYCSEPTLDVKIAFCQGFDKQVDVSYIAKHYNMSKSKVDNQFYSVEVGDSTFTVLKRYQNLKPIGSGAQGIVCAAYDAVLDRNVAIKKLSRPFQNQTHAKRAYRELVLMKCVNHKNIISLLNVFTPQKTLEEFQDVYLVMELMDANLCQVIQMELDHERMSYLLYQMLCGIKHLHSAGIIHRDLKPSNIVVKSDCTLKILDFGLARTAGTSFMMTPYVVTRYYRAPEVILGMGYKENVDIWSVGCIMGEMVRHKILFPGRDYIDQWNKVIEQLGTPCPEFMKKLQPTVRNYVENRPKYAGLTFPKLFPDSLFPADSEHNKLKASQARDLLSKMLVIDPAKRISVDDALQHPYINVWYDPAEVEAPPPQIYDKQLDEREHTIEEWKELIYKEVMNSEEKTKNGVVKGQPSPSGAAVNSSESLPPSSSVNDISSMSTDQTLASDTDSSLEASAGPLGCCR
# experiment.notes: Inhibition of JNK3 by HTRF assay
measured.metric: pIC50
pIC50 here: minus log base 10 of the concentration, concentration in moles per litre.

[ask] Report pIC50 for `Cc1cccc(C)c1-n1c(=O)c2cnc(Nc3ccc(N4CCN(C)CC4)cc3)nc2n2c3ccccc3nc12` please.
[reply] 5.14

====

# experiment.notes: AUC in collagen-induced arthritis Lewis rat
# Assay type: ADME, organism-based
# assay.conditions: plasma
measured.metric: AUC (µM·h)
// return numeric value only (unit: µM·h, not printed)

[ask] Report AUC for `Cc1cccc(C)c1-n1c(=O)c2cnc(Nc3ccc(N4CCN(C)CC4)cc3)nc2n2c3ccccc3nc12` please.
[reply] 3.3

====

# experiment.notes: Tmax in Sprague-Dawley rat at 5 mg/kg, po
# Format: ADME, organism-based
# Parameters: dose 5 mg/kg, route oral
# assay.conditions: in vivo
measured.metric: Tmax (h)
// return numeric value only (unit: h, not printed)

[ask] Report Tmax for `Cc1cccc(C)c1-n1c(=O)c2cnc(Nc3ccc(N4CCN(C)CC4)cc3)nc2n2c3ccccc3nc12` please.
[reply] 3

====

Hi there, I'd appreciate the recorded IC50 for every entry that follows.
# assayed.system: Mitogen-activated protein kinase 14 (Homo sapiens, UniProt Q16539)
# Sequence (Q16539 whole entry): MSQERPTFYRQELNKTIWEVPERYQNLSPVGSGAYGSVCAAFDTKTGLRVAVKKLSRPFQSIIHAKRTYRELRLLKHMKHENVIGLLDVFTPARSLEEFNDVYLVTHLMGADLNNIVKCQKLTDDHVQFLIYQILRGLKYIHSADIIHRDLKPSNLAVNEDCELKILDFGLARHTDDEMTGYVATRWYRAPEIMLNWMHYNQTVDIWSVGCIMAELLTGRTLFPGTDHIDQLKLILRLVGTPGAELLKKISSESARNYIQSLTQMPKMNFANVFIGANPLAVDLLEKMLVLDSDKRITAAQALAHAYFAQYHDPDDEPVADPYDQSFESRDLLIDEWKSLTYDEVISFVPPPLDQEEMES
# experiment.notes: Inhibition of p38-alpha by HTRF assay

[ask] Report IC50 for `Cc1cccc(C)c1-n1c(=O)c2cnc(Nc3ccc(OCCN4CCN(C)CC4)c(F)c3)nc2n2c3ccccc3nc12` please.
[reply] > 10 µM

[ask] Report IC50 for `COc1cc(Nc2ncc3c(=O)n(-c4c(C)cccc4C)c4nc5ccccc5n4c3n2)cc(OC)c1OCCN1CCOCC1` please.
[reply] > 10 µM

[ask] Report IC50 for `COc1cc(Nc2ncc3c(=O)n(-c4c(C)cccc4C)c4nc5ccccc5n4c3n2)cc(OC)c1OCCCN1CCN(C)CC1` please.
[reply] > 10 µM

====

# assayed.system: Serine/threonine-protein kinase B-raf (Homo sapiens)
# Sequence (P15056 whole entry): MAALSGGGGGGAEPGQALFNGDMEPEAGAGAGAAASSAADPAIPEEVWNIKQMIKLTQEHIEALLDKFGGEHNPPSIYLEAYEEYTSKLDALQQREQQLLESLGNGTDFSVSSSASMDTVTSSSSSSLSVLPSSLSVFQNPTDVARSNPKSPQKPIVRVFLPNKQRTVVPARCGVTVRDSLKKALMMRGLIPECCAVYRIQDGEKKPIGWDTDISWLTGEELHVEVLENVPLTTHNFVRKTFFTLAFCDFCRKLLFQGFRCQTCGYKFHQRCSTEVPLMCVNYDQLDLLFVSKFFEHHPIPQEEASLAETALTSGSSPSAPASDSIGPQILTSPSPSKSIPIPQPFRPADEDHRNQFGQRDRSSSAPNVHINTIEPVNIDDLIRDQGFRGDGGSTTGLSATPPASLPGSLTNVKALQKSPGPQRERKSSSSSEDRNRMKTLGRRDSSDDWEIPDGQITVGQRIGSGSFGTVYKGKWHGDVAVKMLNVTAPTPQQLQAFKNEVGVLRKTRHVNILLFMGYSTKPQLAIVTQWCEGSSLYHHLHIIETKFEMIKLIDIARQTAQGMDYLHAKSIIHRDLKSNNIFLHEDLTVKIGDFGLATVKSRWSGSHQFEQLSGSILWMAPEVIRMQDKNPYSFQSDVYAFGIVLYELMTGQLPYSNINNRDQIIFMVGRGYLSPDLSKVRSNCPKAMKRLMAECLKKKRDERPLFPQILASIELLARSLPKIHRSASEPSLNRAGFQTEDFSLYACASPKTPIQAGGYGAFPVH
measured.metric: IC50 (nM)
// return numeric value only (unit: nM, not printed)

[ask] Report IC50 for `Cc1cccc(C)c1-n1c(=O)c2cnc(Nc3ccc(N4CCN(C)CC4)cc3)nc2n2c3ccccc3nc12` please.
[reply] 540

====

# experiment.notes: Cmax in Sprague-Dawley rat at 5 mg/kg, po
# Type: ADME, organism-based
# Parameters: dose 5 mg/kg, route oral
# assay.conditions: in vivo
measured.metric: Cmax
A bare number is not enough; add the unit after it.

[ask] Report Cmax for `Cc1cccc(C)c1-n1c(=O)c2cnc(Nc3ccc(N4CCN(C)CC4)cc3)nc2n2c3ccccc3nc12` please.
[reply] 82 ng/mL

====

# assayed.system: Tyrosine-protein kinase JAK3 (Homo sapiens, UniProt P52333)
# Sequence (P52333 whole entry): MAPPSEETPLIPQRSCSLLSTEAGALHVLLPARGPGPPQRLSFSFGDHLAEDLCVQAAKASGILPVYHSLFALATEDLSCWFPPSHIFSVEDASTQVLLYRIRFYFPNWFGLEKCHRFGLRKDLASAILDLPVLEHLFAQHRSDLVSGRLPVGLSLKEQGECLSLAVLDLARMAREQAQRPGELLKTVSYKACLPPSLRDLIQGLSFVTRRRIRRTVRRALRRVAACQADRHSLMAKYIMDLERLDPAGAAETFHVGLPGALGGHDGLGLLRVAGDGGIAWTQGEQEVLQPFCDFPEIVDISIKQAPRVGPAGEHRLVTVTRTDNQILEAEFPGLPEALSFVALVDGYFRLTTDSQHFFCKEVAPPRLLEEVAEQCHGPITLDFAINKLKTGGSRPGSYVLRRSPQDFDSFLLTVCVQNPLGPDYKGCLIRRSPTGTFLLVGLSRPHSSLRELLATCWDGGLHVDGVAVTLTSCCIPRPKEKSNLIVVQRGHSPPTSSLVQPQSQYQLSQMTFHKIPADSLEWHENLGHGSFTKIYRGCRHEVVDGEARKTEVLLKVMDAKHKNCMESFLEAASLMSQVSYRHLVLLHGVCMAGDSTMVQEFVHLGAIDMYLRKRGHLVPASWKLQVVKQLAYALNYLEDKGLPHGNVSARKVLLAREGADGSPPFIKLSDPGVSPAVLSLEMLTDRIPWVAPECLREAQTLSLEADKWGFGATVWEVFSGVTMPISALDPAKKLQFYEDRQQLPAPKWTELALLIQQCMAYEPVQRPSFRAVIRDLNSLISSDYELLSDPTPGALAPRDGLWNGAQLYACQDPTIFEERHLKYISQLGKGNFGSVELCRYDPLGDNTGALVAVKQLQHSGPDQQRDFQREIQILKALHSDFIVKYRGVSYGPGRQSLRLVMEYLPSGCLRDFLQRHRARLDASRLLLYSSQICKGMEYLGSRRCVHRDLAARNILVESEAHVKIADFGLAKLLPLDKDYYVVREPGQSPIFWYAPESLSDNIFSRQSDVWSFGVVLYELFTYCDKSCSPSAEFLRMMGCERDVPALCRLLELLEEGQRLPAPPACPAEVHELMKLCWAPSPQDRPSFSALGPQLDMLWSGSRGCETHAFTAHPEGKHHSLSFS
measured.metric: IC50 (nM)
// return numeric value only (unit: nM, not printed)

[ask] Report IC50 for `Cc1cccc(C)c1-n1c(=O)c2cnc(Nc3ccc(N4CCN(C)CC4)cc3)nc2n2c3ccccc3nc12` please.
[reply] 150

====

# assayed.system: Mitogen-activated protein kinase 9 (Homo sapiens, UniProt P45984)
# Sequence (P45984 whole entry): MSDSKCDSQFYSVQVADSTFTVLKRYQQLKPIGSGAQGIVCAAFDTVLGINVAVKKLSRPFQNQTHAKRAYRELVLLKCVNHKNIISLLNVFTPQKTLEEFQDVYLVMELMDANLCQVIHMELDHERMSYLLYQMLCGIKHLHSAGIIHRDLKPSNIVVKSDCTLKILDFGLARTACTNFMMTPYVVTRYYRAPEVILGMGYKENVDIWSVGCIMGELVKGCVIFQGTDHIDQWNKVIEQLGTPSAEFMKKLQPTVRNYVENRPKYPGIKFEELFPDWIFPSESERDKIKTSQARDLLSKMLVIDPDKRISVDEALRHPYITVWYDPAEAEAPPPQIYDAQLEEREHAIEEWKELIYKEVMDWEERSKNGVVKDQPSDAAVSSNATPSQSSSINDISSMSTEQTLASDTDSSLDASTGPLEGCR
# experiment.notes: Inhibition of JNK2 by HTRF assay
measured.metric: IC50

[ask] Param readout= IC50; system= Mitogen-activated protein kinase 9 (Homo sapiens, UniProt P45984); entry= `Cc1cccc(C)c1-n1c(=O)c2cnc(Nc3ccc(N4CCN(C)CC4)cc3)nc2n2c3ccccc3nc12` ; returns value.
[reply] > 40 µM

====

measured.metric: IC50 (nM)
// return numeric value only (unit: nM, not printed)

[ask] Param readout= IC50; system= Mast/stem cell growth factor receptor Kit (Homo sapiens, UniProt P10721); entry= `Cc1cccc(C)c1-n1c(=O)c2cnc(Nc3ccc(N4CCN(C)CC4)cc3)nc2n2c3ccccc3nc12` ; returns value.
[reply] 560

====

# assayed.system: Vascular endothelial growth factor receptor 2 (Homo sapiens, UniProt P35968)
# Sequence (P35968 whole entry): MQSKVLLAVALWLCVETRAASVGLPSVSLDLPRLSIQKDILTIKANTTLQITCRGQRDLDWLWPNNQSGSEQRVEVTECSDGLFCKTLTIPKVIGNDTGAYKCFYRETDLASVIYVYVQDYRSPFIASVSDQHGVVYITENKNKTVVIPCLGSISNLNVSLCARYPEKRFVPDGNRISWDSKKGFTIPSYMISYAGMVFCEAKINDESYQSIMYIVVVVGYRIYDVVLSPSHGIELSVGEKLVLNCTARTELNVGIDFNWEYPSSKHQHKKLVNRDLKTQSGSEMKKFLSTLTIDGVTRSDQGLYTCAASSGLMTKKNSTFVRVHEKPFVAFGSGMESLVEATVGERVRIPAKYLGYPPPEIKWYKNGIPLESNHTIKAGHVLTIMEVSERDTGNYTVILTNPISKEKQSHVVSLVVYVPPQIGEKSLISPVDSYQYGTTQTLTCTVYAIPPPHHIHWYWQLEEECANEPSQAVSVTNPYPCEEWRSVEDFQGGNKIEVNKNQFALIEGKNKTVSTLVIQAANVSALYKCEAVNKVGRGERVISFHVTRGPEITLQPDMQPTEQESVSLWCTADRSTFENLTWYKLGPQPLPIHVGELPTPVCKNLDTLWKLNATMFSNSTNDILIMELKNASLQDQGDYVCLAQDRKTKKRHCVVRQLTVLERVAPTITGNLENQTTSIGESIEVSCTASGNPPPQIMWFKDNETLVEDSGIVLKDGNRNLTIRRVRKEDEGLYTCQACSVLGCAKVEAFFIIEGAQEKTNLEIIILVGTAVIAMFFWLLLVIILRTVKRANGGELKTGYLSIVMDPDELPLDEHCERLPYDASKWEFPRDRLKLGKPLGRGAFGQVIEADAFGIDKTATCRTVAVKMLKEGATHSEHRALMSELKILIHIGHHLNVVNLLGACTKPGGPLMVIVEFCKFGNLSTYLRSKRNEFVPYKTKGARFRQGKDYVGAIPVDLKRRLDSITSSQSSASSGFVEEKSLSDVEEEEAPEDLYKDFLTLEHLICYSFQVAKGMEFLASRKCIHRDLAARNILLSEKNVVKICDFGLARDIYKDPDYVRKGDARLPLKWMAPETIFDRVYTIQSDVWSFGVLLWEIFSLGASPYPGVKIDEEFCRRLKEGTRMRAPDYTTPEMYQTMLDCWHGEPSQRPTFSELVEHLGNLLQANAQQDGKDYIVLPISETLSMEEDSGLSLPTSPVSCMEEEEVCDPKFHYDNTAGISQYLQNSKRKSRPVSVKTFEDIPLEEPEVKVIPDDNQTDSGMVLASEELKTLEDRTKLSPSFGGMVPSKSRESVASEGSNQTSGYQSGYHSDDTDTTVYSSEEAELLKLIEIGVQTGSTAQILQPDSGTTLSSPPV
y if IC50 is below 2 µM. n if not; exact matches included in n.

[ask] Given `Cc1cccc(C)c1-n1c(=O)c2cnc(Nc3ccc(OCCCN4CCCCC4)cc3)nc2n2c3ccccc3nc12` , is recorded IC50 strictly lower than 2 µM?
[reply] n

[ask] Given `COc1cc(Nc2ncc3c(=O)n(-c4c(C)cccc4C)c4nc5ccccc5n4c3n2)cc(OC)c1OC` , is recorded IC50 strictly lower than 2 µM?
[reply] y

[ask] Given `Cc1cccc(-n2c(=O)c3cnc(Nc4ccc(N5CCN(C)CC5)cc4)nc3n3c4ccccc4nc23)c1` , is recorded IC50 strictly lower than 2 µM?
[reply] n

[ask] Given `COc1cc(Nc2ncc3c(=O)n(-c4c(C)cccc4C)c4nc5ccccc5n4c3n2)ccc1N1CCN(C)CC1` , is recorded IC50 strictly lower than 2 µM?
[reply] n

[ask] Given `COc1ccc(Cl)cc1-n1c(=O)c2cnc(Nc3ccc(N4CCN(C)CC4)cc3)nc2n2c3ccccc3nc12` , is recorded IC50 strictly lower than 2 µM?
[reply] n

[ask] Given `COc1cc(Nc2ncnc(-n3c(Nc4c(C)cccc4C)nc4ccccc43)n2)cc(OC)c1OC` , is recorded IC50 strictly lower than 2 µM?
[reply] y

[ask] Given `CN1CCN(c2ccc(Nc3ncc4c(=O)n(-c5c(Cl)cc(Cl)cc5Cl)c5nc6ccccc6n5c4n3)cc2)CC1` , is recorded IC50 strictly lower than 2 µM?
[reply] y

[ask] Given `COc1cccc(-n2c(=O)c3cnc(Nc4ccc(N5CCN(C)CC5)cc4)nc3n3c4ccccc4nc23)c1` , is recorded IC50 strictly lower than 2 µM?
[reply] n
